# measurementNotes: In vitro metabolic stability in rat liver microsomes
# Assay type: in vitro ADME
# statedConditions: rat liver microsomes (male Wistar Han), NADPH, 37° C.; read-out: Intrinsic clearance rate
Assign microsomal CLint at 1 µM to each entry below.
Give bare numbers, in µL/min/mg.

Consider the reported microsomal CLint at 1 µM for these molecules:
- smilesInput: "CNc1nccc(Sc2c(C)nc(N3CCC4(CC3)Cc3ncccc3[C@H]4N)n3ccnc23)c1Cl"
  parameterMeasured: "microsomal CLint at 1 µM"
  recordedValue: 19.2
- smilesInput: "[2H]CNc1nccc(Sc2c(C)nc(N3CCC4(CC3)Cc3ncccc3[C@H]4N)n3ccnc23)c1Cl"
  parameterMeasured: "microsomal CLint at 1 µM"
  recordedValue: 34.7

Please examine the following record next.
Using the record for [2H]C([2H])Nc1nccc(Sc2c(C)nc(N3CCC4(CC3)Cc3ncccc3[C@H]4N)n3ccnc23)c1Cl , report its microsomal CLint at 1 µM.
26.6

====

Consider the following molecules; for each one, report its pIC50.
# studySystem: full-length SHP2 (aa 1-593) (Homo sapiens, UniProt Q06124)
# Sequence (Q06124 1-593): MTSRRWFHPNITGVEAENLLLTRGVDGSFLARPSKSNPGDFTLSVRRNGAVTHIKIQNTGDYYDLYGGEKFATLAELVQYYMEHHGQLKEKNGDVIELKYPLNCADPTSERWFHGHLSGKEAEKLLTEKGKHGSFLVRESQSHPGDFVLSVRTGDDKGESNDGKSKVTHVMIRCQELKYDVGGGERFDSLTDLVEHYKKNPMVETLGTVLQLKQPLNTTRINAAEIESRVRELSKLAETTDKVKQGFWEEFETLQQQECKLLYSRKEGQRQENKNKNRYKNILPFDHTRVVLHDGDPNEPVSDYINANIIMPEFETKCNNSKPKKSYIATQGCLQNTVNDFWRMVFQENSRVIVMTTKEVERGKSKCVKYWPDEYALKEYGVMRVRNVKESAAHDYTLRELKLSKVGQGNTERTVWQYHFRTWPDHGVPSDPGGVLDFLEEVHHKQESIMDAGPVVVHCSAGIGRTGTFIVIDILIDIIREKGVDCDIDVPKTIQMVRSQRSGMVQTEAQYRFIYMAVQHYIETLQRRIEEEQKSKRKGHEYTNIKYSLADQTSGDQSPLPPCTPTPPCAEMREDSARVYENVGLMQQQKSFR
Answers are plain numbers, as −log10 of the molar value.

Could I get pIC50 for every one of these entries?
1. [2H]C([2H])([2H])Nc1nccc(Sc2c(C)nc(N3CCC4(CC3)Cc3ncccc3[C@H]4N)n3ccnc23)c1Cl
2. [2H]C([2H])Nc1nccc(Sc2c(C)nc(N3CCC4(CC3)Cc3ncccc3[C@H]4N)n3ccnc23)c1Cl
3. [2H]CNc1nccc(Sc2c(C)nc(N3CCC4(CC3)Cc3ncccc3[C@H]4N)n3ccnc23)c1Cl

1: 8.35; 2: 8.32; 3: 8.33

====

# studySystem: CYP2C19 (Homo sapiens)
# Construct: Mixed human liver microsomes from 150 donors; tissue Corning 452117; host or cells: pooled human liver microsomes (150 donors)
# measurementNotes: CYP inhibition in mixed human liver microsomes, CYP2C19 (S-mephenytoin)
# Format: in vitro ADME
# statedConditions: mixed human liver microsomes 0.2 mg/mL, S-mephenytoin; read-out: Median inhibitory concentration (IC50) CYP 2C19
parameterMeasured: IC50

Observed IC50 on CYP2C19 (Homo sapiens) for Nc1nccc(Sc2cnc(N3CCC4(CC3)Cc3ncccc3[C@H]4N)n3ccnc23)c1Cl [Example 1] , please.
> 20 µM

====

# studySystem: CYP2C9 (Homo sapiens)
# Construct: Mixed human liver microsomes from 150 donors; tissue Corning 452117; host or cells: pooled human liver microsomes (150 donors)
# Sequence (P11712 whole entry): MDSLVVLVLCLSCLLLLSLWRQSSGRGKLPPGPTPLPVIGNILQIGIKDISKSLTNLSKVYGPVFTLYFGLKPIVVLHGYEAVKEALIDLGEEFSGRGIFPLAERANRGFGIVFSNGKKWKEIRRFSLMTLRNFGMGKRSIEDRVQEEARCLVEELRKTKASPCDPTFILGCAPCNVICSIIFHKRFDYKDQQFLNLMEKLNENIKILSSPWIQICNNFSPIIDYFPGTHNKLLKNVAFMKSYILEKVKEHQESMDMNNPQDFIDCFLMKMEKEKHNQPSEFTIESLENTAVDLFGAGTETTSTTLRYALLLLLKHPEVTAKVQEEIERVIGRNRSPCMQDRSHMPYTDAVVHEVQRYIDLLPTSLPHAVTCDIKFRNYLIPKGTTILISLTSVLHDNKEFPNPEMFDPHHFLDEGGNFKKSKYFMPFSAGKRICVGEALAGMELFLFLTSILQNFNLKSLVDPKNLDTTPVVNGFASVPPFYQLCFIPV
# measurementNotes: CYP inhibition in mixed human liver microsomes, CYP2C9 (diclofenac sodium)
# Assay type: in vitro ADME
# Procedure: Mixed human liver microsomes from 150 donors (purchased from Corning, catalog number 452117) were used to evaluate the representative substrate metabolic responses of the five main human CYP subtypes (CYP1A2, CYP2C9, CYP2C19, CYP2D6 and CYP3A4/5). […] The peak area was calculated based on the chromatograms. The residual activity ratio (%) was calculated using the following equation: […] The CYP median inhibitory concentration (IC50) was calculated by Excel XLfit 5.3.1.3.
pIC50: −log10 of the molar value.
parameterMeasured: pIC50

Identify the measured pIC50 of [2H]C([2H])([2H])Nc1nccc(Sc2c(C)nc(N3CCC4(CC3)Cc3ncccc3[C@H]4N)n3ccnc23)c1Cl for CYP2C9 (Homo sapiens).
< 4.70

====

# studySystem: CYP1A2 (Homo sapiens)
# Construct: Mixed human liver microsomes from 150 donors; tissue Corning 452117; host or cells: pooled human liver microsomes (150 donors)
# Sequence (P05177 whole entry): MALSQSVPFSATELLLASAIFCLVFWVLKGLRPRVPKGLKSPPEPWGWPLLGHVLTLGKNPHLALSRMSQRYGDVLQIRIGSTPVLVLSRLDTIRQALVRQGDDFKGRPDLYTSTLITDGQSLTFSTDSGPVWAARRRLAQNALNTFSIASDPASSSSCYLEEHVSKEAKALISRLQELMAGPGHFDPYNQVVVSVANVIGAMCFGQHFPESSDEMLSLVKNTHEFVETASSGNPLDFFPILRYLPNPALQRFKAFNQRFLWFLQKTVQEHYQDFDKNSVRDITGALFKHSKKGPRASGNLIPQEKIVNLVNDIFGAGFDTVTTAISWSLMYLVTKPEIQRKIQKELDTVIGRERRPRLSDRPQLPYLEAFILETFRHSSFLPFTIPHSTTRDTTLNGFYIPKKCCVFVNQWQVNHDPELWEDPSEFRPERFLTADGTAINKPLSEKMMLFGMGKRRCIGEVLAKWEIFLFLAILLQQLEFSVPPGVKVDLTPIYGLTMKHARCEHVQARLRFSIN
# measurementNotes: CYP inhibition in mixed human liver microsomes, CYP1A2 (phenacetin)
# Format: in vitro ADME
# statedConditions: mixed human liver microsomes 0.2 mg/mL, phenacetin; read-out: Median inhibitory concentration (IC50) CYP 1A2
parameterMeasured: IC50
Please format your answer as a value with the unit trailing.

Request: IC50, test system CYP1A2 (Homo sapiens), entry Nc1nccc(Sc2cnc(N3CCC4(CC3)Cc3ncccc3[C@H]4N)n3ccnc23)c1Cl
9.21 µM

====

Record form. Attribute: Cmax. Fill in for each entry.
# measurementNotes: In vivo pharmacokinetics in cynomolgus monkeys (gavage)
# statedConditions: male, plasma, po, 5 mg/kg, original drug, cynomolgus monkey, 5 mpk, read-out: Maximum blood conc. Cmax
One number for each entry, in ng/mL.

- compound: "[2H]C([2H])([2H])Nc1nccc(Sc2c(C)nc(N3CCC4(CC3)Cc3ncccc3[C@H]4N)n3ccnc23)c1Cl [Example 3]"
  unitAbbreviation: "ng/mL"
  Cmax: 12200

May I ask what Cmax has been recorded for CNc1nccc(Sc2c(C)nc(N3CCC4(CC3)Cc3ncccc3[C@H]4N)n3ccnc23)c1Cl [Example 2] ?
12700

====

# studySystem: CYP2C19 (Homo sapiens, UniProt P33261)
# Construct: Mixed human liver microsomes from 150 donors; tissue Corning 452117; host or cells: pooled human liver microsomes (150 donors)
# Sequence (P33261 whole entry): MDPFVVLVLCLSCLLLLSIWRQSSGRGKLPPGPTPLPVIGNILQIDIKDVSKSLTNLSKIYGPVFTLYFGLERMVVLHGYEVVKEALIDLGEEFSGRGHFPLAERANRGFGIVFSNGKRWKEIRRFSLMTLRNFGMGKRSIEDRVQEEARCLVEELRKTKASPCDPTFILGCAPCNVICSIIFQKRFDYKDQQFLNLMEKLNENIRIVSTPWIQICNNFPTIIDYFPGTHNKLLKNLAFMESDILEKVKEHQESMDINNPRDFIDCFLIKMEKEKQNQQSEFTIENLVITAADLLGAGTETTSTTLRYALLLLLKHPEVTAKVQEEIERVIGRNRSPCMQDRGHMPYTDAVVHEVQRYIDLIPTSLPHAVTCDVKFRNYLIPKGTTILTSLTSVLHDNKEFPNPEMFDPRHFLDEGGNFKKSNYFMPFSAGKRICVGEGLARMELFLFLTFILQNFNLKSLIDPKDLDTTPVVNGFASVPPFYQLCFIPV
# measurementNotes: CYP inhibition in mixed human liver microsomes, CYP2C19 (S-mephenytoin)
# Assay type: in vitro ADME
parameterMeasured: IC50

Requested read-out: IC50. Entry: [2H]C([2H])([2H])Nc1nccc(Sc2c(C)nc(N3CCC4(CC3)Cc3ncccc3[C@H]4N)n3ccnc23)c1Cl [Example 3]
> 20 µM

====

# measurementNotes: In vivo pharmacokinetics in rats (gavage)
# Parameters: species or system SD rats
# statedConditions: male, SD, plasma, po, 5 mg/kg, original drug, rat, 5 mpk, read-out: Maximum blood conc. Cmax
parameterMeasured: Cmax
Kindly format the answer as number then unit.

Which Cmax is reported for this compound? [2H]C([2H])([2H])Nc1nccc(Sc2c(C)nc(N3CCC4(CC3)Cc3ncccc3[C@H]4N)n3ccnc23)c1Cl
445 ng/mL

====

# measurementNotes: In vivo pharmacokinetics in cynomolgus monkeys (gavage)
# statedConditions: male, plasma, po, 5 mg/kg, original drug, cynomolgus monkey, 5 mpk, read-out: Area under curve AUC
parameterMeasured: AUC (ng·h/mL)
Answers are plain numbers, in ng·h/mL.

- compound: "CNc1nccc(Sc2c(C)nc(N3CCC4(CC3)Cc3ncccc3[C@H]4N)n3ccnc23)c1Cl [Example 2]"
  unitAbbreviation: "ng·h/mL"
  AUC: 71000

# get_value(readout='AUC', item= [2H]C([2H])([2H])Nc1nccc(Sc2c(C)nc(N3CCC4(CC3)Cc3ncccc3[C@H]4N)n3ccnc23)c1Cl [Example 3] )
72300

====

# studySystem: CYP2D6 (Homo sapiens, UniProt P10635)
# Construct: Mixed human liver microsomes from 150 donors; tissue Corning 452117; host or cells: pooled human liver microsomes (150 donors)
# Sequence (P10635 whole entry): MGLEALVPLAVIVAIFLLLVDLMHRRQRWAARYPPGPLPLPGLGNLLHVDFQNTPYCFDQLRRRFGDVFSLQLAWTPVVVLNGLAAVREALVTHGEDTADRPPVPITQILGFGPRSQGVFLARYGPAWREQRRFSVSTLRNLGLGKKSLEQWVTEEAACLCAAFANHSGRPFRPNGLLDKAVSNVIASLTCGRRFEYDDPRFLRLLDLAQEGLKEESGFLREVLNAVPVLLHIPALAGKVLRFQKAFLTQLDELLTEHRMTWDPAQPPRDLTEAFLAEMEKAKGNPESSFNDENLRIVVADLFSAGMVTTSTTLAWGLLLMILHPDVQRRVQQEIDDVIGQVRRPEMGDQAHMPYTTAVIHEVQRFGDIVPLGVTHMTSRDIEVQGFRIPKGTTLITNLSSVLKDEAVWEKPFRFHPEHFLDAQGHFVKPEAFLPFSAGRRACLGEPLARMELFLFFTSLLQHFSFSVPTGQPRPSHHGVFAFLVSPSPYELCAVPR
# measurementNotes: CYP inhibition in mixed human liver microsomes, CYP2D6 (bufurolol hydrochloride)
# Type: in vitro ADME
parameterMeasured: IC50

Which IC50 is reported for this compound? [2H]C([2H])([2H])Nc1nccc(Sc2c(C)nc(N3CCC4(CC3)Cc3ncccc3[C@H]4N)n3ccnc23)c1Cl
> 20 µM

====

# Tested on: CYP3A4/5
# measurementNotes: CYP inhibition in mixed human liver microsomes, CYP3A4/5 (midazolam)
# Type: in vitro ADME
# statedConditions: pH 7.4, mixed human liver microsomes 0.2 mg/mL, read-out: Median inhibitory concentration (IC50) CYP 3A4/5
parameterMeasured: IC50 at 5 min

# query: IC50 at 5 min of entry [2H]C([2H])([2H])Nc1nccc(Sc2c(C)nc(N3CCC4(CC3)Cc3ncccc3[C@H]4N)n3ccnc23)c1Cl [Example 3]
> 20 µM
